- Test Summary: Half life in mouse liver microsomes at 3 uM by LC-MS/MS analysis
- Type: ADME, Microsome
Parameter Measured: half-life at 3 µM (min)
One number for each entry, in min.

Before answering, review these 5 worked examples.
{"columns": ["Molecule", "Parameter Measured", "Reading Unit", "Result Number"],
 "data": [
  ["CN1C[C@H]2CCCC[C@@]2(Cc2ccc(Cl)c(Cl)c2)C1 (stereo in doubt)", "half-life at 3 µM", "min", 25],
  ["c1ccc2cc([C@@]34CCC[C@@H]3CNC4)ccc2c1", "half-life at 3 µM", "min", 56],
  ["CN1C[C@@H]2CCCC[C@]2(c2ccc3ccccc3c2)C1", "half-life at 3 µM", "min", 18],
  ["CN1C[C@H]2CCC[C@@]2(c2ccc3ccccc3c2)C1", "half-life at 3 µM", "min", 18],
  ["CN1C[C@H]2CCCC[C@@]2(c2ccc3ccccc3c2)C1", "half-life at 3 µM", "min", 7]
]}

For each of the molecules below, state half-life at 3 µM.
1. CCN1C[C@H]2CCCC[C@@]2(c2ccc(Cl)c(Cl)c2)C1
2. CN1C[C@@H]2CCCC[C@]2(c2ccc(Cl)c(Cl)c2)C1
3. CCN1C[C@@H]2CCCC[C@]2(c2ccc(Cl)c(Cl)c2)C1 (single isomer, unassigned)

A.
1: 52; 2: 35; 3: 33

---

Here we list compounds with their recorded pIC50 when tested on UniProtKB P11712.
Sequence (P11712 whole entry): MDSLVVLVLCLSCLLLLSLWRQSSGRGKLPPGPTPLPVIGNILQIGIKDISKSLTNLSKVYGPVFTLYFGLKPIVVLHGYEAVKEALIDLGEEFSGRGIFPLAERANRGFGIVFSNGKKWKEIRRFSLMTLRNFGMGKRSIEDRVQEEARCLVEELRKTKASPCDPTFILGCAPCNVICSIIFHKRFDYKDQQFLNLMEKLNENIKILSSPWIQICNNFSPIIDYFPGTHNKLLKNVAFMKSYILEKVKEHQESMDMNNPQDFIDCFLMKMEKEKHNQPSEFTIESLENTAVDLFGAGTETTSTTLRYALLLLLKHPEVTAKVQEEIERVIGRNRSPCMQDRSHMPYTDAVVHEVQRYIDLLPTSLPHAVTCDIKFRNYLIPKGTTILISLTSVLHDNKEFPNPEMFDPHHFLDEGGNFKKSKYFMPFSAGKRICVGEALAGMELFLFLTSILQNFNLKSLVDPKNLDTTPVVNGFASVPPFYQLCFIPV
pIC50: −log10 of the molar value.

{"columns": ["Compound", "Measured Target", "Result"],
 "data": [
  ["CN1C[C@H]2CCC[C@@]2(c2ccc(Cl)c(Cl)c2)C1", "UniProtKB P11712", "< 4.60"],
  ["CN1C[C@@H]2CCC[C@]2(c2ccc(Cl)c(Cl)c2)C1 (single isomer, unassigned)", "UniProtKB P11712", 5.01],
  ["CCN1C[C@@H]2CCCC[C@]2(c2ccc(Cl)c(Cl)c2)C1 (single isomer, unassigned)", "UniProtKB P11712", "< 5.30"],
  ["Clc1ccc([C@@]23CCC[C@@H]2CNC3)cc1Cl", "UniProtKB P11712", "< 4.60"],
  ["Clc1ccc([C@@]23CCCC[C@@H]2CNC3)cc1Cl", "UniProtKB P11712", "< 4.60"],
  ["Clc1ccc([C@]23CCCC[C@H]2CNC3)cc1Cl", "UniProtKB P11712", "< 4.60"]
]}

Let us examine a further case.
Q. Look up and state reported pIC50 for Clc1ccc([C@]23CCC[C@H]2CNC3)cc1Cl (single isomer, unassigned)
A. 5.40

---

- Measured Target: Cytochrome P450 2C19 (Homo sapiens)
- Sequence (P33261 whole entry): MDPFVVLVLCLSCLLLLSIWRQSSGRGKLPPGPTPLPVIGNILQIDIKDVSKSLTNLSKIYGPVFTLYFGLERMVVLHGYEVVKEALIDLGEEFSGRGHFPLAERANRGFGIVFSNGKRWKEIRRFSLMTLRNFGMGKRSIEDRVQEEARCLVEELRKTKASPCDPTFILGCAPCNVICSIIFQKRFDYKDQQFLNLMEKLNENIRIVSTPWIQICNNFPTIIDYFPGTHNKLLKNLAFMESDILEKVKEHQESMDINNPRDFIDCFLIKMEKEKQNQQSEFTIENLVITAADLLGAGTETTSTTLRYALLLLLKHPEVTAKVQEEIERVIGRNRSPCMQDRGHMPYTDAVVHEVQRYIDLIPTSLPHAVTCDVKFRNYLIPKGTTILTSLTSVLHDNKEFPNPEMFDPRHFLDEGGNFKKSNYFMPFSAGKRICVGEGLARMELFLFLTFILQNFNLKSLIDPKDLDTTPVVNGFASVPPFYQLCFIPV
Please go through the items and note down their pIC50.
Numbers only, as −log10 of the molar value.

For each of the compounds below, state pIC50.
1. CN1C[C@@H]2CCC[C@]2(c2ccc(Cl)c(Cl)c2)C1 (single isomer, unassigned)
2. CN1C[C@H]2CCC[C@@]2(c2ccc(Cl)c(Cl)c2)C1
3. CN1C[C@H]2CCCC[C@@]2(c2ccc(Cl)c(Cl)c2)C1 (single isomer, unassigned)

A.
[5.65, 5.14, 4.92]

---

- Test Summary: Ratio of drug level in brain to plasma in po dosed mouse
- Format: ADME, organism-based
- Stated Conditions: brain and plasma, read-out: BPR
Parameter Measured: Kp
Answers are plain numbers.

{"columns": ["Molecule", "Kp"],
 "data": [
  ["CN1C[C@H]2CCCC[C@@]2(c2ccc(Cl)c(Cl)c2)C1 (single isomer, unassigned)", 5]
]}

Let us examine a further case.
Q. Look up and state reported Kp for CN1C[C@H]2CCC[C@@]2(c2ccc(Cl)c(Cl)c2)C1
A. 2

---

Here we list compounds with their recorded IC50 when tested on Cytochrome P450 2C19 (Homo sapiens).
Give bare numbers, in µM.

Before answering, review these 3 worked examples.
{"columns": ["Compound", "Reading Unit", "IC50"],
 "data": [
  ["Clc1ccc([C@]23CCC[C@H]2CNC3)cc1Cl (single isomer, unassigned)", "µM", 1.9],
  ["CCN1C[C@H]2CCCC[C@@]2(c2ccc(Cl)c(Cl)c2)C1", "µM", 17.9],
  ["c1ccc2cc([C@@]34CCC[C@@H]3CNC4)ccc2c1", "µM", 7.19]
]}

Let us examine a further case.
Q. Look up and state reported IC50 for Clc1ccc([C@@]23CCC[C@@H]2CNC3)cc1Cl
A. 11.9

---

- Measured Target: Voltage-gated inwardly rectifying potassium channel KCNH2 (Homo sapiens, UniProt Q12809)
- Sequence (Q12809 whole entry): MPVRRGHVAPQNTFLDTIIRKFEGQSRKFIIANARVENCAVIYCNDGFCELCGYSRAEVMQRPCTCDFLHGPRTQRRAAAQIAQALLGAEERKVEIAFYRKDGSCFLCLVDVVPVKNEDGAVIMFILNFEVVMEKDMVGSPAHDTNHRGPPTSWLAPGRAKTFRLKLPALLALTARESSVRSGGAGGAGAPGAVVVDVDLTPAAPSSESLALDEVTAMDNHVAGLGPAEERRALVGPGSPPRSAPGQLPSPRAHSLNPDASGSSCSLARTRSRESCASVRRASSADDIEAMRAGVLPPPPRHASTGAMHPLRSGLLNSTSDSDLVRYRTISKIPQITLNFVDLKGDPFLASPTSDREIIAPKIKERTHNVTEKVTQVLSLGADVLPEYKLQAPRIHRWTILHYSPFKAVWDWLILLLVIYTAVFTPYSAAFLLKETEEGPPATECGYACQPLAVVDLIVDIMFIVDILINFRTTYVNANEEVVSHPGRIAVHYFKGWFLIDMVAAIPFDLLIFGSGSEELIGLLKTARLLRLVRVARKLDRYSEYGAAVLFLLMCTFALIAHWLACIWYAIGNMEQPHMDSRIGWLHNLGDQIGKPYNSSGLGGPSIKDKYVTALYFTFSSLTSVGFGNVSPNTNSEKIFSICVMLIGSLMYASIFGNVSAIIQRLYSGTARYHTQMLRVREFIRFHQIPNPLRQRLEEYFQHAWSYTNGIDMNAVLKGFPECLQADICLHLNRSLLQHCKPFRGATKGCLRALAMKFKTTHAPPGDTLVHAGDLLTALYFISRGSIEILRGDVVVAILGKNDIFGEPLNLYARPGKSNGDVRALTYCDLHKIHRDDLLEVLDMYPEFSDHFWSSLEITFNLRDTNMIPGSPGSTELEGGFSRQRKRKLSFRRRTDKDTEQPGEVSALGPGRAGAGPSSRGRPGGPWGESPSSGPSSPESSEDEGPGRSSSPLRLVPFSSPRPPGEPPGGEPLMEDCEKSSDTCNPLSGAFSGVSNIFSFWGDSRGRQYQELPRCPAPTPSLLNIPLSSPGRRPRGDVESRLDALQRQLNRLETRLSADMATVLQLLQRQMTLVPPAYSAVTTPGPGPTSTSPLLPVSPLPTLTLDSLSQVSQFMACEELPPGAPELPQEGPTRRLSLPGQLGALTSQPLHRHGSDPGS
- Test Summary: Inhibition of human ERG expressed in CHO cells by high throughput single cell planar patch clamp method
Threshold 5 µM: IC50 strictly smaller gives t, otherwise f.

As a guide, the following entries are already answered.
{"columns": ["Compound", "Category Label"],
 "data": [
  ["CCN1C[C@H]2CCCC[C@@]2(c2ccc(Cl)c(Cl)c2)C1", "t"],
  ["CN1C[C@H]2CCCC[C@@]2(c2ccc(Cl)c(Cl)c2)C1 (single isomer, unassigned)", "t"],
  ["Clc1ccc([C@@]23CCCC[C@@H]2CNC3)cc1Cl", "t"]
]}

Q. Lab note: IC50 threshold 5 µM. Does this compound come in strictly under it? Clc1ccc([C@@]23CCC[C@@H]2CNC3)cc1Cl
A. f

Q. Lab note: IC50 threshold 5 µM. Does this compound come in strictly under it? Clc1ccc([C@]23CCC[C@H]2CNC3)cc1Cl (single isomer, unassigned)
A. f

---

- Measured Target: Cytochrome P450 3A4 (Homo sapiens, UniProt P08684)
- Sequence (P08684 whole entry): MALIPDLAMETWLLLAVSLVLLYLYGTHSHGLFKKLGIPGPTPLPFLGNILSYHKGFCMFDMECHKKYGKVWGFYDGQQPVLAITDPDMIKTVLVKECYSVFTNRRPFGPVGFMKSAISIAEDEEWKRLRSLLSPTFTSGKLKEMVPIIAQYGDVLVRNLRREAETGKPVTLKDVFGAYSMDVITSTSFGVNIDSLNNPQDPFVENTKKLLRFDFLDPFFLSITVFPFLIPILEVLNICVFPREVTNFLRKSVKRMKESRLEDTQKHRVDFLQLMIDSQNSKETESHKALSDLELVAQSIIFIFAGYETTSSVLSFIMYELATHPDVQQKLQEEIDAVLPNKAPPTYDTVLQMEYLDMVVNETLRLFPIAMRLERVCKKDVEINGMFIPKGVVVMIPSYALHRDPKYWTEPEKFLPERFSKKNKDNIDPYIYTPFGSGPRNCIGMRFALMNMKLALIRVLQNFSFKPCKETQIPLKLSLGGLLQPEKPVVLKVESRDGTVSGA
- Test Summary: Inhibition of CYP3A4 in human liver microsomes by LC-MS/MS analysis
- Type: ADME, Microsome
Parameter Measured: IC50 (µM)
Answers are plain numbers, in µM.

{"columns": ["Compound", "Measured Target", "Parameter Measured", "Result Number"],
 "data": [
  ["Clc1ccc([C@]23CCC[C@H]2CNC3)cc1Cl (single isomer, unassigned)", "Cytochrome P450 3A4 (Homo sapiens, UniProt P08684)", "IC50", 9.17]
]}

For each of the compounds below, state IC50.
1. Clc1ccc([C@]23CCCC[C@H]2CNC3)cc1Cl
2. CN1C[C@@H]2CCC[C@]2(c2ccc(Cl)c(Cl)c2)C1 (single isomer, unassigned)
3. Clc1ccc([C@@]23CCCC[C@@H]2CNC3)cc1Cl

A.
1: 8.39; 2: 12.7; 3: 12.8

---

- Measured Target: Sodium-dependent noradrenaline transporter (Homo sapiens, UniProt P23975)
- Sequence (P23975 whole entry): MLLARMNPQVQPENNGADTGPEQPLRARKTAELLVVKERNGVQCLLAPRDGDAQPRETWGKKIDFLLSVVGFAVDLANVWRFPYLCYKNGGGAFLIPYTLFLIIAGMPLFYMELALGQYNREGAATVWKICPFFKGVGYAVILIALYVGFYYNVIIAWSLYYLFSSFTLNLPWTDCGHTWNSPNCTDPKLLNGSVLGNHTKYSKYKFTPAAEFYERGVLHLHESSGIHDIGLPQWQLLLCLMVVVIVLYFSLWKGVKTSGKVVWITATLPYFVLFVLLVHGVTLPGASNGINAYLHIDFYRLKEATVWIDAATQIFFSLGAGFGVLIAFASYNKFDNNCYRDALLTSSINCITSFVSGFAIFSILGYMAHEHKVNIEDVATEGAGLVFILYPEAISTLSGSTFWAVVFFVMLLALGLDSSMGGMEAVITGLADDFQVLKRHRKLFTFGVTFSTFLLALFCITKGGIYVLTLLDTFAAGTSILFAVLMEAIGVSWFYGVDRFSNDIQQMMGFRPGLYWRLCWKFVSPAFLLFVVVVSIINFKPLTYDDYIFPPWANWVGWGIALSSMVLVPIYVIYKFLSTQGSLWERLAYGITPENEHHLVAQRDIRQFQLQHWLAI
- Test Summary: Inhibition of norepinephrine reuptake at NET expressed in MDCK cells
Please go through the items and note down their IC50.

{"columns": ["Compound", "Measured Target", "IC50"],
 "data": [
  ["CN1C[C@@H]2CCCC[C@]2(c2ccc(Cl)c(Cl)c2)C1", "Sodium-dependent noradrenaline transporter (Homo sapiens, UniProt P23975)", "141 nM"],
  ["CN1C[C@@H]2CCC[C@]2(c2cc(Cl)cc(Cl)c2)C1 (racemic)", "Sodium-dependent noradrenaline transporter (Homo sapiens, UniProt P23975)", "4270 nM"],
  ["Clc1ccc(C[C@]23CCCC[C@H]2CNC3)cc1Cl", "Sodium-dependent noradrenaline transporter (Homo sapiens, UniProt P23975)", "5370 nM"]
]}

For each of the compounds below, state IC50.
1. CCN1C[C@@H]2CCCC[C@]2(c2ccc(Cl)c(Cl)c2)C1 (single isomer, unassigned)
2. CN1C[C@@H]2CCC[C@]2(c2ccc(Cl)c(Cl)c2)C1 (racemic)
3. Clc1ccc([C@@]23CCCC[C@@H]2CNC3)cc1Cl
4. CN1C[C@@H]2CCC[C@]2(c2ccc3ccccc3c2)C1
5. Clc1ccc([C@]23CCC[C@H]2CNC3)cc1Cl (single isomer, unassigned)
6. Clc1ccc([C@]23CCCC[C@H]2CNC3)cc1Cl

A.
38 nM
24 nM
204 nM
209 nM
209 nM
178 nM

---

Here we list compounds with their recorded pIC50 when tested on Cytochrome P450 2D6 (Homo sapiens, UniProt P10635).
Sequence (P10635 whole entry): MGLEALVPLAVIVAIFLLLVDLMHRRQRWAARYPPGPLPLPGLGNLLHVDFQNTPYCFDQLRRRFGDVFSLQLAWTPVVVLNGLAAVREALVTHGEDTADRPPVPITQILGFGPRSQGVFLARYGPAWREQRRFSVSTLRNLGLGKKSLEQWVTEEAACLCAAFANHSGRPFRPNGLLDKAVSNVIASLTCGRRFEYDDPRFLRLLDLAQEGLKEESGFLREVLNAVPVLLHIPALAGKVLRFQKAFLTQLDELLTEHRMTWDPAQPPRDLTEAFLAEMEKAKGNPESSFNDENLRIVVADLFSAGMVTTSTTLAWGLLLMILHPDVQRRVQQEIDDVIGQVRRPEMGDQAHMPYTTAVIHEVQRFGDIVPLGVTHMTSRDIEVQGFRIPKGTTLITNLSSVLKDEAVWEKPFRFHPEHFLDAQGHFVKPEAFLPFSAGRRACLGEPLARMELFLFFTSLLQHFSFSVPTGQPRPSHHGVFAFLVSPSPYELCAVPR
Give bare numbers, as −log10 of the molar value.

Before answering, review these 5 worked examples.
{"columns": ["Compound", "Result Number"],
 "data": [
  ["CN1C[C@@H]2CCCC[C@]2(c2ccc3ccccc3c2)C1", 6.25],
  ["CN1C[C@H]2CCC[C@@]2(c2ccc(Cl)c(Cl)c2)C1", 5.28],
  ["Clc1ccc([C@@]23CCC[C@@H]2CNC3)cc1Cl", 5.16],
  ["CCN1C[C@@H]2CCCC[C@]2(c2ccc(Cl)c(Cl)c2)C1 (single isomer, unassigned)", 5.53],
  ["CN1C[C@@H]2CCCC[C@]2(c2ccc(Cl)c(Cl)c2)C1", 5.10]
]}

Let us examine a further case.
Q. Fill in: pIC50 on Cytochrome P450 2D6 (Homo sapiens, UniProt P10635), entry CN1C[C@H]2CCC[C@@]2(c2ccc3ccccc3c2)C1
A. 4.89
